The measured values listed here are drawn from ChEMBL document CHEMBL2331094.

# maps each entry to its EC50
# target: Lysophosphatidic acid receptor 3 (Homo sapiens, UniProt Q9UBY5)
# Sequence (Q9UBY5 whole entry): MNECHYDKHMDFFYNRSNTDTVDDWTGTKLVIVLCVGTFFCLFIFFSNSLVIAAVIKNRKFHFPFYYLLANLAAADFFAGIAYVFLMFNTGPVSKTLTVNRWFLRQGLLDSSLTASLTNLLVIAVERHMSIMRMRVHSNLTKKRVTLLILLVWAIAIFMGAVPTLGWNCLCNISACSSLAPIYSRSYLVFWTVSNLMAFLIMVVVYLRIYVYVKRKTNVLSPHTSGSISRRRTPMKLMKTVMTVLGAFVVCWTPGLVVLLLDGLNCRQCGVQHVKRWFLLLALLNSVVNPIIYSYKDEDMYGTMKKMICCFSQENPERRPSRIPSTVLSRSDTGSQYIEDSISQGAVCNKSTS
# assayRemarks: Agonist activity at human LPA3 receptor transfected in HEK293 cells after 1 hr by TGFalpha shedding assay
# Assay type: cell-based

compound	scaleUnit	EC50
CCCCCCCCCCCCCCCCOC(COC)COP(O)(O)=S (stereo not given)	pM	360
CCCCCCCCCCCCCCCCCOC(COC)COP(O)(O)=S (racemic)	pM	390
CCCCCCCCCCCCCCCCCC(=O)OC(COC)COP(O)(O)=S (racemic)	pM	210
CCCCCCCCCCCCCCCCCCOCC(COP(O)(O)=S)OC (racemic)	pM	230
CCCCCCCCCCCCCCCCCCOC[C@@H](COP(O)(O)=S)OC	pM	370
CCCCCCCCCCCCCCCCCC(=O)OCC(COP(=O)(O)S)OC (racemic)	pM	280
CCCCCCCCCCCCCCCCCC(=O)OC[C@H](COP(O)(O)=S)OC	pM	440
CCCCCCCCCCCCCCCCCC(=O)OC[C@@H](COP(O)(O)=S)OC	pM	270
CCCCCCCCCCCCCCCCCCOC[C@H](COP(O)(O)=S)OC	pM	1080
CCCCCCCCCCCCCCCC(=O)OC[C@@H](O)COP(=O)(O)O	pM	580000

----------
# target: Lysophosphatidic acid receptor 1 (Homo sapiens)
# Sequence (Q92633 whole entry): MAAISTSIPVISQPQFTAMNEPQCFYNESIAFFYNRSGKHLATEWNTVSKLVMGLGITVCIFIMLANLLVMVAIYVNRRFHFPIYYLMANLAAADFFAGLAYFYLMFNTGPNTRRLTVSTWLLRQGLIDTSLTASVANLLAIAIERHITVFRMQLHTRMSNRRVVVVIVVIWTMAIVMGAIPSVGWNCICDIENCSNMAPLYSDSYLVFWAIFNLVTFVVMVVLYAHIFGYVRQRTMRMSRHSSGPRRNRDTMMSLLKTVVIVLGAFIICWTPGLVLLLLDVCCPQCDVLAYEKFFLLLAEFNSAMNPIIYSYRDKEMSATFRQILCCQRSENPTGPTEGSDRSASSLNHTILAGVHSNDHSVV
# assayRemarks: Intrinsic activity at human LPA1 receptor transfected in HEK293 cells after 1 hr by TGFalpha shedding assay relative to LPA
# Type: cell-based
# maps each entry to its Intrinsic activity

compound	Intrinsic activity
CCCCCCCCCCCCCCCCCC(=O)OC(COC)COP(O)(O)=S (racemic)	1.15
CCCCCCCCCCCCCCCC(=O)OC[C@@H](O)COP(=O)(O)O	0.24
CCCCCCCCCCCCCCCCCOC(COC)COP(O)(O)=S (racemic)	1.29
CCCCCCCCCCCCCCCCCC(=O)OCC(COP(=O)(O)S)OC (racemic)	0.79
CCCCCCCCCCCCCCCCCC(=O)OC[C@H](COP(O)(O)=S)OC	0.61
CCCCCCCCCCCCCCCCCC(=O)OC[C@@H](COP(O)(O)=S)OC	0.94
CCCCCCCCCCCCCCCCCCOC[C@H](COP(O)(O)=S)OC	0.57
CCCCCCCCCCCCCCCCCCOC[C@@H](COP(O)(O)=S)OC	1.2
CCCCCCCC/C=C\CCCCCCCC(=O)OC[C@@H](O)COP(=O)(O)O	1
CCCCCCCCCCCCCCCCOC(COC)COP(O)(O)=S (stereo unspecified)	0.38
CCCCCCCCCCCCCCCCCCOCC(COP(O)(O)=S)OC (racemic)	1.63

----------
# target: Lysophosphatidic acid receptor 3 (Homo sapiens)
# assayRemarks: Intrinsic activity at human LPA3 receptor transfected in HEK293 cells after 1 hr by TGFalpha shedding assay relative to LPA
# Type: cell-based
Rule: Intrinsic activity of 400 or more gives 1; anything lower gives -1.

molecule	labelClass
CCCCCCCCCCCCCCCCCC(=O)OC[C@@H](COP(O)(O)=S)OC	1
CCCCCCCCCCCCCCCCCC(=O)OC[C@H](COP(O)(O)=S)OC	-1
CCCCCCCC/C=C\CCCCCCCC(=O)OC[C@@H](O)COP(=O)(O)O	-1
CCCCCCCCCCCCCCCCCC(=O)OC(COC)COP(O)(O)=S (racemic)	1
CCCCCCCCCCCCCCCCCCOC[C@H](COP(O)(O)=S)OC	-1
CCCCCCCCCCCCCCCC(=O)OC[C@@H](O)COP(=O)(O)O	-1
CCCCCCCCCCCCCCCCCOC(COC)COP(O)(O)=S (racemic)	-1
CCCCCCCCCCCCCCCCOC(COC)COP(O)(O)=S (stereo unspecified)	-1
CCCCCCCCCCCCCCCCCCOCC(COP(O)(O)=S)OC (racemic)	1
